Cited source: patent US12479839B2

# protocol.notes: In vivo pharmacokinetic study in female Balb/c Nude mice
# Design: species or system mouse
# applied.conditions: mouse, plasma, 1 mg/kg IV, read-out: AUC04
readout.label: AUC (µM·h)
Write the number in µM·h without appending the unit.

Return reported AUC; argument: Cc1cnn(C)c1-c1cc(N2CCOC[C@H]2C)nc(-c2cc(CO)cc3[nH]ccc23)n1 [Compound of formula (1)]
1.09
